- tested on: UniProtKB Q13164
- Sequence (Q13164 2-816): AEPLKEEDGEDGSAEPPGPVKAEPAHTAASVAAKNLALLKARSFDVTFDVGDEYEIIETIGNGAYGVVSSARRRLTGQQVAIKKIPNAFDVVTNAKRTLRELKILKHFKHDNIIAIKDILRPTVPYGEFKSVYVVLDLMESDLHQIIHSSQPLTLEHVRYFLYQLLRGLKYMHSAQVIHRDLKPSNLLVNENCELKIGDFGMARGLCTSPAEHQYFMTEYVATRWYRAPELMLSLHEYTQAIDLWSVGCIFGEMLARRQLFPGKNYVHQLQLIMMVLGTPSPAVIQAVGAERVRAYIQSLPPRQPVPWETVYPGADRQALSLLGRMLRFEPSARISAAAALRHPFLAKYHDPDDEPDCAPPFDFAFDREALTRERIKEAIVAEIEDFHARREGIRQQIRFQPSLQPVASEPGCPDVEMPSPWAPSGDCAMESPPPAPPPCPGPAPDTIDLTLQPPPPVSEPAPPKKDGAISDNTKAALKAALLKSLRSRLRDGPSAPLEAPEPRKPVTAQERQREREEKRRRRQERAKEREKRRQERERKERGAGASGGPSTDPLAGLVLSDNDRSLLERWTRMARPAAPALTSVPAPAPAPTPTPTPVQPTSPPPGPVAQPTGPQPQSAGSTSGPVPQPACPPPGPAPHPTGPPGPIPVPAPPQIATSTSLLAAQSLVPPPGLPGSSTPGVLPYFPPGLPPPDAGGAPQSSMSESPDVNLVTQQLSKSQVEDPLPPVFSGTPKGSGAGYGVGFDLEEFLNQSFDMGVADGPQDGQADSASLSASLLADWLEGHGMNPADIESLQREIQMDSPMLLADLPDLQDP
readout kind: IC50
I'd appreciate it if you wrote the number followed by its unit.

input: Recorded IC50 for `CN1C/C=C/CCOc2cccc(c2)-c2ccnc(n2)Nc2cccc(c2)C1` , please?
output: 100 nM
